I'd appreciate it if you could supply Z-AUC values for the items below.
Test: qHTS drug screen for cell cycle checkpoint inhibitors in PARPi-resistant BRCA-mutant ovarian cancer cell lines. (AID 1963452)
Details: PEO1/OlaR viability, CellTiter-Glo luminescence, 96 h; measured here: PEO1 parental Z-AUC; stronger effect = lower value
From the text: Women's Malignancies Branch, Center for Cancer Research (CCR), National Cancer Institute (NCI), National Institutes of Health (NIH), Bethesda, MD Poly (ADP-ribose) polymerase inhibitors (PARPis) have changed the treatment paradigm in breast cancer gene (BRCA) - mutant high-grade serous ovarian carcinoma (HGSC). […] 6; Detection; Luminescence, PHERAstar (BMG Labtech) plate reader. […] 6. Luminescence readings were taken using PHERAstar (BMG Labtech). […]
Answers are plain numbers.

// known answers, use as guide
>  <COMPOUND>
CC/C(=C(/c1ccc(O)cc1)c1ccc(OCCNC)cc1)c1ccccc1

>  <Z-AUC>
0.257

$$$$
>  <COMPOUND>
CC(C)(CO)n1cc(C(=O)c2cncc(NC(=O)Cc3ccc(Cl)cn3)c2)c2cnc(N)nc21

>  <Z-AUC>
0.879

$$$$
>  <COMPOUND>
COc1cc(OC)c(/C=C/S(=O)(=O)Cc2ccc(OC)c(OP(=O)(O)O)c2)c(OC)c1

>  <Z-AUC>
-2.04

$$$$
>  <COMPOUND>
CCS(=O)(=O)Nc1ccc(Oc2ccc(F)cc2F)c(-c2cn(C)c(=O)c3[nH]ccc23)c1

>  <Z-AUC>
-1.41

$$$$
>  <COMPOUND>
CCCNC(=O)c1cn2ncnc(Nc3cc(C(=O)NC4CC4)ccc3C)c2c1C

>  <Z-AUC>
0.435

$$$$

Quick one: give me Z-AUC for each item below, same order please.
1. CC(=O)[C@]1(N)Cc2c(O)c3c(c(O)c2[C@@H](O[C@H]2C[C@H](O)[C@H](O)CO2)C1)C(=O)c1ccccc1C3=O
2. C=C1C(=O)O[C@H]2C[C@H](C)C(/C=C/C(C)=O)=CC[C@H]12
3. O=C(Nc1nccs1)C(c1cc(F)ccc1O)N1Cc2ccccc2C1=O (centres undefined)
4. O=S(=O)(Nc1ccc(-c2cccnc2)c2cccnc12)c1cccc(C(F)(F)F)c1
5. C[C@H]1CNC(=O)c2cnn3ccc(nc23)N[C@H](C)c2cc(F)ccc2O1
6. CCN(C(=O)c1ccccc1OC)c1cc2c(cc1N1CCNC[C@H]1C)n(C)c(=O)n2C
7. C[C@H](NC(=O)CCC(F)(F)F)C(=O)N[C@@H]1C(=O)N(CCO)c2ncccc2-c2ccccc21
8. O=C1CC(c2c[nH]c3ccc(F)cc23)C(=O)N1 (centres undefined)

Data returned:
[-0.44, -0.357, -0.736, 0.0874, -2.09, -0.889, 0.166, 0.554]

Data request: // lookup Z-AUC for O=C(/C=C/c1ccc2ccc(C(F)(F)F)cc2n1)c1ccncc1
Data returned: -0.753

Data origin: PubChem BioAssay (NCATS)
